Readings of pIC50 for the listed molecules
target: STING WT: His-TVMV-S-hSTING(155-341)-H232R (Homo sapiens, UniProt Q86WV6, H232R)
Construct: STING WT: His-TVMV-S-hSTING(155-341)-H232R
Sequence (Q86WV6 with tags, fused parts or gaps H232R): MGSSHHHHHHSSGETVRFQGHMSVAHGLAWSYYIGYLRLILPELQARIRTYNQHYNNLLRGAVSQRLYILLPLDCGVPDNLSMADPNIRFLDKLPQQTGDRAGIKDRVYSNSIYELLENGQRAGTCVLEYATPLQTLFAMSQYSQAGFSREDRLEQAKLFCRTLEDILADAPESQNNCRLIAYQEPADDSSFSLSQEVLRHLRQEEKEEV
assayName: STING HTRF competition binding assay, STING WT
assayConditions: 20 nM His-tagged STING cytoplasmic domain WT, 200 nM fluorescein-labeled cGAMP analog probe, one hour; read-out: HTRF Binding Assays IC50 WT
pIC50 here is simply -log10 of the concentration when that concentration is written in mol/L.

The following molecules have reported results that may help.
# input molecule: NC(=O)c1cc([C@@H]2O[C@@H]3COP(=O)(S)O[C@H]4[C@@H](F)[C@H](n5cnc6c(N)ncnc65)O[C@@H]4COP(=O)(S)O[C@@H]2[C@@H]3O)[nH]n1 (single isomer, unassigned) [Example 1-1] ; wanted: its pIC50 5.62

Endpoint output: pIC50 of NC(=O)c1cc([C@@H]2O[C@@H]3COP(=O)(S)O[C@H]4[C@@H](F)[C@H](n5cnc6c(N)ncnc65)O[C@@H]4COP(=O)(S)O[C@@H]2[C@@H]3O)[nH]n1 (single isomer, unassigned) [Example 1-2] . Value? 6.04

Query: pIC50; subject: NC(=O)c1cc([C@@H]2O[C@@H]3COP(O)(=S)O[C@H]4[C@@H](F)[C@H](n5cnc6c(N)ncnc65)O[C@@H]4COP(O)(=S)O[C@@H]2[C@@H]3O)[nH]n1 (stereo partly shown) [Example 1-4] 6.17

---
What does the record list as pIC50 for NC(=O)c1cc([C@@H]2O[C@@H]3COP(=O)(S)O[C@H]4[C@@H](F)[C@H](n5cnc6c(N)ncnc65)O[C@@H]4COP(=O)(S)O[C@@H]2[C@@H]3O)[nH]n1 (single isomer, unassigned) [Example 1-3] ? 7.30

Origin of values: patent US11667663B2
